test: Cytotoxicity against human T47D cells assessed as reduction in cell viability after 24 hrs by MTT assay; format: functional, cell-based
MEASURED_PROPERTY: IC50 (µM)

COc1cc(/C=C/C(=O)CC(=O)/C=C/c2ccc(O)c(OC)c2)ccc1O; 30
COc1cc([C@H]2Oc3cc([C@H]4Oc5cc(O)cc(O)c5C(=O)[C@@H]4O)ccc3O[C@@H]2CO)ccc1O; 110
